Where do the numbers come from? From ChEMBL document CHEMBL2074160.

Molecular target: Solute carrier organic anion transporter family member 1A1 (Rattus norvegicus, UniProt P46720)
Sequence (P46720 whole entry): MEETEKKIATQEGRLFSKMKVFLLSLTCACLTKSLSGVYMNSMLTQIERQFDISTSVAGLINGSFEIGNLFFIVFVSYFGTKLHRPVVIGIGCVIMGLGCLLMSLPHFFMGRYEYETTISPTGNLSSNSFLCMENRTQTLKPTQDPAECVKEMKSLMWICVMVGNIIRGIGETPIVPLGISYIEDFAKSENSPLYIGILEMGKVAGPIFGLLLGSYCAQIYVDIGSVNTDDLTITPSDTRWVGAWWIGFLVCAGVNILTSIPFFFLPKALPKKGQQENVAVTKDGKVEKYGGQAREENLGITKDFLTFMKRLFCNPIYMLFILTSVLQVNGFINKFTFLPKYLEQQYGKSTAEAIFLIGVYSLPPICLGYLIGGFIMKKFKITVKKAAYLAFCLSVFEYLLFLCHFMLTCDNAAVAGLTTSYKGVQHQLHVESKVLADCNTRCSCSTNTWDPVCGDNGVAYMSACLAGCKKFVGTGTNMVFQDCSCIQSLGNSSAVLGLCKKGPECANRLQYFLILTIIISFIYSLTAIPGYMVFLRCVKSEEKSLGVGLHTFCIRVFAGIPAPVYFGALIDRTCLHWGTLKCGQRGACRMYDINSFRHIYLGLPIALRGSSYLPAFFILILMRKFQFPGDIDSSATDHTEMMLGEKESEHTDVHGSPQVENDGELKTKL
Test: TP_TRANSPORTER: inhibition of Ouabain uptake (Ouabain: 100 uM, Estradiol-3-glucuronide: 100 uM) in Xenopus laevis oocytes
Assay type: functional, cell-based, Oocyte
Parameters: scale not given: the % may be the effect or the level left
Conditions: probe Ouabain (100 uM), read-out: Activity
measurement_name: activity at 100 µM

* C[C@]12CC[C@@H]3c4ccc(O[C@@H]5O[C@H](C(=O)O)[C@@H](O)[C@H](O)[C@H]5O)cc4CC[C@H]3[C@@H]1CC[C@@H]2O | 27%
